ASSAYED_SYSTEM: human OT7T175 (metastin receptor) (human, UniProt Q969F8 1-398)
Sequence (Q969F8 whole entry L364H): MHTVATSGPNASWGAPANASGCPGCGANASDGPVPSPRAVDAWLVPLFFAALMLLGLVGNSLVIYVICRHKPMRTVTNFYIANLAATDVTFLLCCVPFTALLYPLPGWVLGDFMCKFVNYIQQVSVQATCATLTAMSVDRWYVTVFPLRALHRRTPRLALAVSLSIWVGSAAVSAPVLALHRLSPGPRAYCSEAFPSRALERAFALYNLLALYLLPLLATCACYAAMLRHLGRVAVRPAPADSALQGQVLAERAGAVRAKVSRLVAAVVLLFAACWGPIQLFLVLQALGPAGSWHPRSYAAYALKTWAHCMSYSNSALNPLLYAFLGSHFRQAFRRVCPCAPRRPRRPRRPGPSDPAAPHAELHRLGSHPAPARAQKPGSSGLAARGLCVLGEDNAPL
PROTOCOL_DESCRIPTION: cell-based or functional assay
Non-standard residues stand in square brackets, D forms with d. No end group written: not given here. Arg(Me) = CNC(=N)NCCC[C@H](N)C(=O)O
PROPERTY_LABEL: Ca ion level-increasing activity (FLIPR)

Query: In one line, give reported Ca ion level-increasing activity (FLIPR) of the entry [dY]NWNTFGL[Arg(Me)]F-NH2 (N-terminus assumed; SMILES CNC(=N)NCCC[C@H](NC(=O)[C@H](CC(C)C)NC(=O)CNC(=O)[C@H](Cc1ccccc1)NC(=O)[C@@H](NC(=O)[C@H](CC(N)=O)NC(=O)[C@H](Cc1c[nH]c2ccccc12)NC(=O)[C@H](CC(N)=O)NC(=O)[C@H](N)Cc1ccc(O)cc1)[C@@H](C)O)C(=O)N[C@@H](Cc1ccccc1)C(N)=O, also called Compound No. 211) [[D-Tyr1,Thr5,Arg(Me)9]MS10] .
Response: 10 x Metastin (1-54)

The origin of these recorded values is patent US20090298765A1.
